Values compiled from patent US20130231303A1.

assay: logP by HPLC on reversed-phase column (EEC Directive 79/831 Annex V.A8); type: physicochemical; conditions: HPLC, reversed-phase C 18, 40° C., 0.1% aqueous formic acid and acetonitrile gradient
quantity-measured: logP
Keep the answer to the number alone.

Record request: logP value, item CCCCC(C)c1sccc1NC(=O)c1c(C(F)F)nn(C)c1Cl (stereo not drawn) [Example 7]
4.25

Which logP is listed for `CCC(CC)Cc1sccc1NC(=O)c1c(C(F)F)nn(C)c1Cl` ?
4.03

Please look up its logP: CCCCC(C)c1sccc1NC(=O)c1c(C(F)F)nn(C)c1Cl (stereo not drawn) [Example 8]
4.13

Quick one: logP for `Cn1nc(C(F)F)c(C(=O)Nc2ccsc2CC[Si](C)(C)C)c1Cl` ?
4.30

Recorded logP of `CC=C(c1sccc1NC(=O)c1c(C(F)F)nn(C)c1Cl)C(C)C` , please.
4.26

For `Cn1nc(C(F)F)c(C(=O)Nc2ccsc2CC[Si](C)(C)C)c1F` , what is its reported logP?
4.06

Fill in: logP of CCCC(C)c1sccc1NC(=O)c1c(C(F)F)nn(C)c1Cl (stereo not drawn) is ___
3.70

Which value of logP has been reported for `Cn1nc(C(F)F)c(C(=O)Nc2ccsc2CC2CCCCC2)c1Cl` in the records?
4.27

Give its logP value. Item: CCC(C)C(C)=Cc1sccc1NC(=O)c1c(C(F)F)nn(C)c1Cl (stereo not drawn)
4.41

Fill blank: measured logP of the compound CC(c1sccc1NC(=O)c1c(C(F)F)nn(C)c1Cl)C1CCCCC1 (stereo not drawn) is ____.
4.56

Reported logP, compound CCC(c1sccc1NC(=O)c1c(C(F)F)nn(C)c1Cl)C(C)C (stereo not drawn) : ____
4.07

Could you share which logP value was measured for CC(C)CCC(C)c1sccc1NC(=O)c1c(C(F)F)nn(C)c1Cl (stereo not drawn) ?
4.45

I would be grateful if you could share the reported logP for `CC(C)CCc1sccc1NC(=O)c1c(C(F)F)nn(C)c1Cl` .
3.74

I have this compound here, CC(C)CC(C)c1sccc1NC(=O)c1c(C(F)F)nn(C)c1Cl (stereo not drawn) , and I need its recorded logP.
4.19

Which logP is listed for CCC(CC(C)C)c1sccc1NC(=O)c1c(C(F)F)nn(C)c1Cl (stereo not drawn) ?
4.46

Returns the measured logP for the input compound. Input: CCC(C)C(C)Cc1sccc1NC(=O)c1c(C(F)F)nn(C)c1Cl (stereo not drawn)
4.41

Consider the compound shown here: `CCC(C)=C(C)c1sccc1NC(=O)c1c(C(F)F)nn(C)c1Cl` What is its recorded logP?
4.23

State the recorded logP for this entry: `Cn1nc(C(F)F)c(C(=O)Nc2ccsc2CCC(C)(C)C)c1Cl`
4.01

Please look up its logP: CC(C)CC(C)c1sccc1NC(=O)c1c(C(F)F)nn(C)c1F (stereo not drawn)
3.94

I'd like to know its logP. The compound in question is CC(CC(C)(C)C)c1sccc1NC(=O)c1c(C(F)F)nn(C)c1Cl (stereo not drawn)
4.29

Item `Cn1nc(C(F)F)c(C(=O)Nc2ccsc2C=CC(C)(C)C)c1Cl` has what recorded logP?
3.92

====

tested on: Fusarium nivale (var. majus); test: Fusarium nivale (var. majus)-test (wheat)/preventive; assay type: in vivo; details: preventive, 500 ppm, evaluated 5 days after inoculation
Exercise: for every item that follows, state its recorded Efficacy.
// note: answer is a bare numeric in %

State the recorded Efficacy for this entry: CC(C)CC(C)c1sccc1NC(=O)c1c(C(F)F)nn(C)c1Cl (centres unmarked) [Example 3]
100

Which Efficacy value is on record for CC(C)CC(C)c1sccc1NC(=O)c1cn(C)nc1C(F)(F)F (centres unmarked) [Example 1.13 from EP-0737682, reference compound] ?
43

Item under review: Cn1nc(C(F)F)c(C(=O)Nc2ccsc2CC[Si](C)(C)C)c1F [Example 19] . Reported Efficacy?
100

I am curious: what Efficacy value has been reported for CC(C)CCc1sccc1NC(=O)c1c(C(F)F)nn(C)c1Cl [Example 1] ?
80

Quick one: Efficacy for Cn1nc(C(F)F)c(C(=O)Nc2ccsc2CCC(C)(C)C)c1Cl [Example 6] ?
100

What does the data say about its Efficacy? Entry: CCCCC(C)c1sccc1NC(=O)c1c(C(F)F)nn(C)c1Cl (centres unmarked) [Example 7]
90

Item CCC(C)C(C)Cc1sccc1NC(=O)c1c(C(F)F)nn(C)c1Cl (centres unmarked) [Example 13] has what recorded Efficacy?
100

Sample Cn1nc(C(F)F)c(C(=O)Nc2ccsc2CC[Si](C)(C)C)c1Cl [Example 18] — what was its Efficacy?
100
